Tested on: RXF 393
protocol.description: NCI tumour cell line growth inhibition, 48 h
The source made the active and inactive calls. Cut-off read from the data, not from the text of the source: active = GI50 up to about 1.1 µM and inactive = higher.
measurement.kind: GI50

> print(dat)
                                   compound               result
1  Cn1c(=S)c2nc(SCCN3C(=O)c4ccccc4C3=O)[nH]c2n(C)c1=O  > 100 µM (inactive)
2  CC(C)(C)COC1C2(OCCO2)C2CCC1(C)C2(C)C (stereo unspecified)   19.6 µM (inactive)
3               CCn1nc(C)c2c1C(=O)NCC(=O)N2  > 100 µM (inactive)
4  COc1ccc2nc3cc(Cl)ccc3c(Sc3ccc([N+](=O)[O-])cc3)c2c1   > 10 µM (inactive)
5  CC(C)(C)C(=O)C(C(c1ccccc1)N1CCOCC1)N1CCOCC1 (stereo unspecified)  > 100 µM (inactive)
6  O=[N+]([O-])C(=C/c1cccc2ccccc12)/C(=C\c1cccc2ccccc12)[N+](=O)[O-]   1.99 µM (inactive)

Ref: ChEMBL document CHEMBL1201862
